This listing pairs compounds with measured IC50.
- study-system: ovine COX1 (Ovis aries, UniProt P05979)
- Construct: purchased Cayman Chemical 560131 (kit)
- Sequence (P05979 25-600): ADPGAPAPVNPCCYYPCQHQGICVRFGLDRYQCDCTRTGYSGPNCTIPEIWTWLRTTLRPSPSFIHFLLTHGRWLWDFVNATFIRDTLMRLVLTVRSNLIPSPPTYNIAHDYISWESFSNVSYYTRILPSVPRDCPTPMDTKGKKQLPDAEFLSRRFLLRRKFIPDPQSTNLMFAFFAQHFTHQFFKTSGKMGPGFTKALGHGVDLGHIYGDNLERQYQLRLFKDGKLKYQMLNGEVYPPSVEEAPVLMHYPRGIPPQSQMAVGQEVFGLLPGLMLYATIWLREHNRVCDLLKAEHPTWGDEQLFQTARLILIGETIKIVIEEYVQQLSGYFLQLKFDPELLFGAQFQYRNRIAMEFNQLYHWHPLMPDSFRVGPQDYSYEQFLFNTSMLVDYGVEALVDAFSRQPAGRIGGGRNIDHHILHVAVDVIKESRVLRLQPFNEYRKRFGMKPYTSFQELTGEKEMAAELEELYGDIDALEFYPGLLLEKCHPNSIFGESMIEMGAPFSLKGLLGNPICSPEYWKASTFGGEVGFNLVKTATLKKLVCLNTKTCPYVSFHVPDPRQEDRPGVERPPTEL
- protocol-notes: COX inhibitor screening assay kit (Cayman No. 560131), COX1
- Format: biochemical
- test-parameters: run in duplicate with three concentrations (50, 20, and 5 µM); read-out: The IC50 in µM of COX1
Unit µM implied. Number only.

COC(=O)Cc1cc2c(cc1C(=O)c1ccccc1)OCO2
12.3
COC(=O)Cc1cc2c(cc1C(=O)c1ccc(I)cc1)OCO2
27.1
COC(=O)Cc1cc2c(cc1C(=O)c1ccccc1I)OCO2
1.12
COC(=O)Cc1cc2c(cc1C(=O)c1cccc(Br)c1)OCO2
2.36
O=C(O)Cc1cc2c(cc1C(=O)c1ccc(I)cc1)OCO2
33.7

IC50 for O=C(O)Cc1cc2c(cc1C(=O)c1ccccc1I)OCO2 is 7.67
